- Tested target: SARS-COV-2 Wuhan Reference RBD (SARS-CoV-2, UniProt P0DTC2 319-541)
- Experiment notes: ELISA, RBD coated
Readout kind: pEC50
Just so you know, pEC50 here is -log10 of the concentration in molar units; reply with that number alone.

Ask: What value of pEC50 has been reported for the following binder? PP1110 MBP-5HVZ-PAPA-RN-26-H6 (VHH, Form: Dimer) VHH: QVQLVESGGGLVQPGGSLRLSCAASGSISSINSMHWYRQAPGKEREWVAAVSSYGSDYYADSVKGRFTISRDNAKNTVYLQMNSLKPEDTAVYYCAARTVTGFTYGDYWGQGTQVTVSS
Reply: 8.46

Ask: Try this binder too: PP1113 MBP-5HVZ-PAPA-RN-29-H6 (VHH, Form: Dimer) VHH: QVQLVESGGGLVQPGGSLRLSCAASGYILSENLTAWFRQAPGKAREVVATVTSGDYTNYDDSVKGRFTISRDNAKNTVYLQMNSLKPEDTAVYYCAAGTSDWEVKWSHWGQGTQVTVSS
Reply: 9.47

Ask: Try this binder too: PP909 MBP-5HVZ-S2b-A7-H6 (VHH, Form: Dimer) VHH: QVQLVESGGGLVQPGGSLRLSCAASGSSDSWNALHWFRQAPGKEREFVAGISSAGSGYYADSVKGRFTISRDNAKNTVYLQMNSLKPEDTAVYYCNGYEHTTGYDYWGQGTQVTVSS
Reply: 9.21

Read the next record carefully.
Ask: What value of pEC50 has been reported for the following binder? PP908 MBP-5HVZ-S2a-C4-H6 (VHH, Form: Dimer) VHH: QVQLVESGGGLVQPGGSLRLSCAASGFSESINATAWFRQAPGKQREGVAGLDGGGSDYYSDSVKGRFTISRDNAKNTVYLQMNSLKPEDTAVYYCAAQLTSSFRGYDFTPSNYDYWGQGTQVTVSS
Reply: 8.80
